Assay: Subcutaneous and intravenous pharmacokinetics in healthy and irradiated Rhesus Macaques
Type: in vivo
Settings: male, rhesus monkey, plasma, iv, 1 mg/kg, IV, healthy; 1 mg/kg; read-out: exposure (AUCINF)
METRIC_NAME: AUC(0-inf) (ng·h/mL)

{"columns": ["MOLECULE", "METRIC_NAME", "MEASURE_UNIT", "MEASURED_VALUE"],
 "data": [
  ["CCCCCCCC/C=C\\CCCCCCCCOP(O)(O)=S [Rx100.L-Lysine]", "AUC(0-inf)", "ng·h/mL", 63200]
]}

---

Molecular target: Human LPA4 (Homo sapiens)
Construct: expressed in transfected cells; host or cells: CHO
Sequence (Q99677 whole entry): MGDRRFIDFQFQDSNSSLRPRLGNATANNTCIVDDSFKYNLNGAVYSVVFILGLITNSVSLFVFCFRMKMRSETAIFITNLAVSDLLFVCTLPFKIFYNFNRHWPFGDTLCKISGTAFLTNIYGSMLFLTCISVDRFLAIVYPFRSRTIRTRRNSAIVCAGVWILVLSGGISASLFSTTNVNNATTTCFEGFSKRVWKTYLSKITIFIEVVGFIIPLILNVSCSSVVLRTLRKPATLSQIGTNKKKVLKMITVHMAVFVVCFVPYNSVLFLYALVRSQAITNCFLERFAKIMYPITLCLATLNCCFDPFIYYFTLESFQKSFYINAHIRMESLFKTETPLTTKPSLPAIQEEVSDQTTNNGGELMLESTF
Test: Calcium-mobilization assay (FURA-2), human LPA4 in CHO cells
Format: cell-based
Measured EC50, listed per entry.

{"columns": ["CHEMICAL_STRUCTURE", "EC50"],
 "data": [
  ["CCCCCCCC/C=C/CCCCCCCCOP(O)(O)=S", "> 5 µM"],
  ["CCCCCCCC/C=C\\CCCCCCCCOP(O)(O)=S", "> 5 µM"]
]}

---

Assay: Solubility measurement by gravimetric method in various solvents
Assay type: physicochemical
Conditions: aqueous with cosolvent or surfactant or cyclodextrin, thermodynamic from solid; EtOH:water (v/v) [3:7]; 50° C.

{"columns": ["COMPOUND", "solubility"],
 "data": [
  ["CCCCCCCC/C=C\\CCCCCCCCOP(O)(O)=S [Rx100.L-Lysine]", "> 84 mg/mL"]
]}

---

Experiment: Subcutaneous and intravenous pharmacokinetics in healthy and irradiated Rhesus Macaques
Type: in vivo
Conditions: male, rhesus monkey, plasma, iv, 1 mg/kg, IV 1 mg/kg, healthy; Average of 6 animals; read-out: Vd

{"columns": ["CHEMICAL_STRUCTURE", "Vd, L/kg"],
 "data": [
  ["CCCCCCCC/C=C\\CCCCCCCCOP(O)(O)=S", 0.428]
]}

---

Experiment: Subcutaneous and intravenous pharmacokinetics in healthy and irradiated Rhesus Macaques
Type: in vivo
Conditions: male, rhesus monkey, plasma, sc, 1 mg/kg, SC 1 mg/kg about 24 h after 11.5 Gy; Average of 6 animals

{"columns": ["CHEMICAL_STRUCTURE", "MEASURE_UNIT", "Tmax"],
 "data": [
  ["CCCCCCCC/C=C\\CCCCCCCCOP(O)(O)=S", "h", 4]
]}

---

Assay: Subcutaneous and intravenous pharmacokinetics in healthy and irradiated Rhesus Macaques
Assay type: in vivo
Details: male, rhesus monkey, plasma, sc, 1 mg/kg, SC, irradiated animals; read-out: half-life, range of individual subjects

{"columns": ["MOLECULE", "half-life"],
 "data": [
  ["CCCCCCCC/C=C\\CCCCCCCCOP(O)(O)=S [Rx100.L-Lysine]", "7.88 to 9.66 h"]
]}

---

Target: LPA2 receptors from the rhesus (Macaca mulatta)
Sequence (I2CXV3 1-351): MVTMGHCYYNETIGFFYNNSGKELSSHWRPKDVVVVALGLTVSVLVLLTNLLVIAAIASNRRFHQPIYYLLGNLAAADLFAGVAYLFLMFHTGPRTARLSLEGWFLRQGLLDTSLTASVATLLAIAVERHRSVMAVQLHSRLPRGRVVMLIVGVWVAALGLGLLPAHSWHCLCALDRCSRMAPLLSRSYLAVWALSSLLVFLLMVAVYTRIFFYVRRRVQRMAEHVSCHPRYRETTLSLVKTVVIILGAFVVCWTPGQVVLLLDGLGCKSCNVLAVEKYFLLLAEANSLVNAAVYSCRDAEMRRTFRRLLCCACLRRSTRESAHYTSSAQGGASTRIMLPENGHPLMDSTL
Experiment: Calcium-mobilization assay (FURA-2), rhesus LPA2
Type: cell-based
pEC50: −log10 of the molar value.
METRIC_NAME: pEC50

{"columns": ["CHEMICAL_STRUCTURE", "STUDY_TARGET", "MEASURED_VALUE"],
 "data": [
  ["CCCCCCCC/C=C/CCCCCCCCOP(O)(O)=S", "LPA2 receptors from the rhesus (Macaca mulatta)", 6.88],
  ["CCCCCCCC/C=C\\CCCCCCCCOP(O)(O)=S", "LPA2 receptors from the rhesus (Macaca mulatta)", 6.98]
]}

// data source = patent US20170226139A1
